Molecular target: human 3β-HSD1
Sequence (P14060 2-373 limits assumed): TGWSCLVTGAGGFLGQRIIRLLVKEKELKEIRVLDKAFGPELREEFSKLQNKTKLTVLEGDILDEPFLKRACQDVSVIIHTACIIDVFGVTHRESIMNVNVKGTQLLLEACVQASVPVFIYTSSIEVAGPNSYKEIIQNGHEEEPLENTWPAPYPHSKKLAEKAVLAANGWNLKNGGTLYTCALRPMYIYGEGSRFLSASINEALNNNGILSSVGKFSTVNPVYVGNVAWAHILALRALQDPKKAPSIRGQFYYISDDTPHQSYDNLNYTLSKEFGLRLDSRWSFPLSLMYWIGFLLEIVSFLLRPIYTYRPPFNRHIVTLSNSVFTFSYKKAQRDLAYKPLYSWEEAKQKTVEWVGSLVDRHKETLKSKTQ
Assay: 3β-HSD1 inhibition, colorimetric NADH detection assay
Assay type: biochemical
Details: purified recombinant human 3β-HSD1, 50 μM DHEA, 2 mM NAD+, 1 hour, room temperature, duplicate 10-point CRC; read-out: IC50 (nM), in vitro NADH inhibition
Provide the reported IC50 of each item.
Units required after the number.

{"compound": "O=C1CCc2nc(-c3cc(F)c(O)c(F)c3)ccc21 [Compound 22]", "result": "297 nM"}
{"compound": "O=C1c2ccc(-c3cc(F)c(O)c(F)c3)nc2CCC1c1ccccc1 (stereo not drawn) [Compound 10]", "result": "79 nM"}
{"compound": "CC1(C(F)(F)F)CCc2nc(-c3cc(F)c(O)c(F)c3)ccc2C1=O (stereo not drawn) [Compound 36]", "result": "59 nM"}
{"compound": "C[C@]1(Cc2ccccc2)CCc2nc(-c3cc(F)c(O)c(F)c3)ccc2C1=O [Compound 57]", "result": "78 nM"}

Each compound below has a recorded value; state its IC50.
1. CCC1CCc2nc(-c3cc(F)c(O)c(F)c3)ccc2C1=O (stereo not drawn) [Compound 8]
2. CC1(C)CCc2nc(-c3cc(F)c(O)c(F)c3)ccc2C1=O [Compound 5]
3. O=C1CCCc2nc(-c3cc(F)c(O)c(Cl)c3)ccc21 [Compound 23]
4. O=C1CCCc2nc(-c3cc(F)c(O)c(F)c3)cnc21 [Compound 70]
5. O=C1CCNc2nc(-c3cc(F)c(O)c(F)c3)ccc21 [Compound 26]
6. CC1(C)CCc2nc(-c3cc(F)c(O)cc3F)ncc2C1=O [Compound 85]

1. 105 nM
2. 71 nM
3. 49 nM
4. 7640 nM
5. 218 nM
6. 1540 nM

Each compound below has a recorded value; state its IC50.
1. COC1(C)CCCc2nc(-c3cc(F)c(O)c(F)c3)ccc21 (stereo not drawn) [Compound 79]
2. O=C1CCOc2nc(-c3cc(F)c(O)c(F)c3)ccc21 [Compound 64]
3. Oc1c(F)cc(-c2ccc3c(n2)CCCC3OCC2COC2)cc1F (stereo not drawn) [Compound 74]
4. Cc1c(-c2ccc3c(n2)CCCC3=O)cc(F)c(O)c1F [Compound 27]

38 nM
433 nM
441 nM
367 nM
